Reported inhibition in vivo at 1 mg/kg is given for each of the following molecules.
test system: paclitaxel induced peripheral neuropathy; assay: Reversal of allodynia induced by paclitaxel in mice (s.c. or p.o., von Frey frequency method); format: in vivo, c57bl/6 mice; conditions: Mus musculus, sc, 0.5 h, 1 mg/kg s.c., tested 30 min after dosing, read-out: Screen @ 1 mg/kg sc (% MPE)

Inquiry: Data request, read-out inhibition in vivo at 1 mg/kg, for Cc1ccccc1-c1noc(-c2ccc3c(c2)nnn3C(C)C)n1
Reply text: > 50%

Inquiry: Data request, read-out inhibition in vivo at 1 mg/kg, for CC(C)Nc1ccc(-c2nc(-c3ccc4c(c3)CCC(=O)N4)no2)cc1C#N
Reply text: < 50%

Inquiry: Data request, read-out inhibition in vivo at 1 mg/kg, for CCC1(CC)CC(=O)c2cc(-c3nc(-c4ccc(S(N)(=O)=O)cc4)no3)ccc2O1
Reply text: < 50%

Inquiry: Data request, read-out inhibition in vivo at 1 mg/kg, for Cc1ccccc1-c1nc(-c2ccc3c(c2)nnn3C(C)C)no1
Reply text: > 50%

Inquiry: Data request, read-out inhibition in vivo at 1 mg/kg, for Cc1ccccc1-c1noc(-c2ccc3c(c2)nnn3CC(C)C)n1
Reply text: > 50%

Inquiry: Data request, read-out inhibition in vivo at 1 mg/kg, for C=CCNc1ccc(-c2nc(-c3cn[nH]c3)no2)cc1C#N
Reply text: < 50%

Inquiry: Data request, read-out inhibition in vivo at 1 mg/kg, for Cc1ccccc1-c1noc(-c2ccc3c(c2)nnn3C2CCC2)n1
Reply text: < 50%

Inquiry: Data request, read-out inhibition in vivo at 1 mg/kg, for CCC1(CC)CC(=O)c2cc(-c3nc(-c4cccnc4OC)no3)ccc2O1
Reply text: > 50%

Inquiry: Data request, read-out inhibition in vivo at 1 mg/kg, for CCC1(CC)CC(=O)c2cc(-c3nc(-c4ccnc(O)c4)no3)ccc2O1
Reply text: > 50%

Inquiry: Data request, read-out inhibition in vivo at 1 mg/kg, for CC(C)n1nnc2cc(-c3noc(-c4ccccc4C(F)(F)F)n3)ccc21
Reply text: < 50%

Inquiry: Data request, read-out inhibition in vivo at 1 mg/kg, for CCC1(CC)CC(=O)c2cc(-c3nc(-c4ccccc4Cl)no3)ccc2O1
Reply text: < 50%

====

Reported hS1P1 cAMP pEC50 is given for each of the following compounds.
biological target: human sphingosine-1-phosphate receptor 1 (S1P1) (Homo sapiens (Human), UniProt P21453); experiment: Inhibition of cAMP production (HTRF cAMP HiRange), S1P1 CHO-K1 cells; type: cell-based; details: inhibition of cAMP production, S1P1 CHO-K1 cells
Sequence (P21453 whole entry, looked up): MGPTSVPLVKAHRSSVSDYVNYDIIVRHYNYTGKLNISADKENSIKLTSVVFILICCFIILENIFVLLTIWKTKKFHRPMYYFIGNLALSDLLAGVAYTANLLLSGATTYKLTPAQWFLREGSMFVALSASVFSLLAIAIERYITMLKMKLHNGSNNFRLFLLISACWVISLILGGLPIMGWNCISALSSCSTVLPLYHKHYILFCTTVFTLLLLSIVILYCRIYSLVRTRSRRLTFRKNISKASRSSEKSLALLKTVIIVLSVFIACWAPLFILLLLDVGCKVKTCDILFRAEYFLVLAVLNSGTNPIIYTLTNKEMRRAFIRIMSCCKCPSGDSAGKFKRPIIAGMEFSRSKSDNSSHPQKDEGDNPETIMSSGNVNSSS

Would you please look over these solved cases?
compound="COc1ccccc1-c1nc(-c2ccc3c(ccn3C(C)C)c2)ns1 [Compound 375]" reported_result=>6.5
compound="COc1ccc(-c2noc(-c3ccc4c(c3)nnn4C3CCCCC3)n2)cc1C(F)(F)F [Compound 284]" reported_result=<6.5
compound="Cc1ccccc1-c1cnc(-c2ccc3c(c2)nnn3C(C)C)s1 [Compound 216]" reported_result=<6.5
compound="CC(=O)Nc1ccc(-c2noc(-c3ccc(NC(C)C)c(C#N)c3)n2)cc1 [Compound 316]" reported_result=>6.5
compound="Cc1ccc(-c2nc(-c3ccc4c(c3)nnn4C(C)C)no2)c(C)c1 [Compound 166]" reported_result=<6.5
compound="CC(C)n1nnc2cc(-c3nc(-c4ccc(OCc5ccccc5)c(C(F)(F)F)c4)no3)ccc21 [Compound 296]" reported_result=<6.5

Inquiry: Data request, read-out hS1P1 cAMP pEC50, for CC(C)n1nnc2cc(-c3noc(-c4cccc5c4CCC5O)n3)ccc21 (stereo not shown) [Compound 636]
Reply text: >6.5

Inquiry: Data request, read-out hS1P1 cAMP pEC50, for CC(C)Nc1ccc(-c2nnc(-c3ccc4[nH]c(=O)oc4c3)o2)cc1C#N [Compound 484]
Reply text: >6.5

====

target: human sphingosine-1-phosphate receptor 1 (S1P1) (Homo sapiens (Human), UniProt P21453); experiment: Inhibition of cAMP production (HTRF cAMP HiRange), S1P1 CHO-K1 cells; assay type: cell-based; details: inhibition of cAMP production, S1P1 CHO-K1 cells
Reported hS1P1 cAMP pEC50 is given for each of the following compounds.

Would you please look over these solved cases?
smiles=Cc1ccncc1-c1noc(-c2ccc3c(c2)nnn3CC(C)(C)O)n1 reported_result=<6.5
smiles=CCC1(CC)CC(=O)c2cc(-c3nc(-c4ccnc(N)c4)no3)ccc2O1 reported_result=>6.5
smiles=CC(C)n1nnc2cc(-c3nc(-c4ccccc4Br)no3)cnc21 reported_result=>6.5
smiles=Cc1ccccc1-c1noc(-c2ccc3scnc3c2)n1 reported_result=<6.5
smiles=CCC1(CC)CC(=O)c2cc(-c3nc(-c4cccs4)no3)ccc2N1 reported_result=>6.5
smiles=CC(C)(CO)Cn1nnc2cc(-c3noc(-c4cnccc4C(F)(F)F)n3)ccc21 reported_result=<6.5

Inquiry: Query for human sphingosine-1-phosphate receptor 1 (S1P1) (Homo sapiens (Human), UniProt P21453): what hS1P1 cAMP pEC50 does the record show for CCCn1nnc2cc(-c3nc(-c4cc(C)cc(C)c4)no3)ccc21 ?
Reply text: <6.5

Inquiry: Query for human sphingosine-1-phosphate receptor 1 (S1P1) (Homo sapiens (Human), UniProt P21453): what hS1P1 cAMP pEC50 does the record show for Cc1ccncc1-c1noc(-c2cnc3c(c2)nnn3C(C)C)n1 ?
Reply text: >6.5

Inquiry: Query for human sphingosine-1-phosphate receptor 1 (S1P1) (Homo sapiens (Human), UniProt P21453): what hS1P1 cAMP pEC50 does the record show for N#Cc1cc(-c2nnc(-c3ccc4[nH]ncc4c3)o2)ccc1NCC1CC1 ?
Reply text: >6.5

====

Reported hS1P1 cAMP pEC50 is given for each of the following compounds.
biological target: human sphingosine-1-phosphate receptor 1 (S1P1) (Homo sapiens (Human)); assay: Inhibition of cAMP production (HTRF cAMP HiRange), S1P1 CHO-K1 cells; assay type: cell-based; details: inhibition of cAMP production, S1P1 CHO-K1 cells

compound=C=CCNc1ccc(-c2nc(-c3ccc4sc(N)nc4c3)no2)cc1C#N reported_result=>6.5
compound=CC(C)n1ncc2cc(-c3nc(-c4ccccc4Br)no3)ccc21 reported_result=>6.5
compound=CC(C)c1cc(-c2nc(-c3ccc4c(c3)nnn4C(C)C)no2)ccn1 reported_result=<6.5
compound=COc1cc(-c2noc(-c3ccc4c(c3)nnn4C3CC3)n2)ccn1 reported_result=<6.5
compound=COc1cccc(-c2coc(-c3ccc4c(c3)nnn4C(C)C)n2)c1 reported_result=<6.5
compound=CC(C)CCn1nnc2cc(-c3nc(-c4ccccc4)no3)ccc21 reported_result=<6.5

Inquiry: Data request, read-out hS1P1 cAMP pEC50, for Cc1ccccc1-c1noc(-c2ccc3c(c2)nnn3C2CCOCC2)n1
Reply text: <6.5

Inquiry: Data request, read-out hS1P1 cAMP pEC50, for CCC1(CC)CC(=O)c2cc(-c3nc(-c4cncc(C)c4)no3)ccc2O1
Reply text: >6.5

Inquiry: Data request, read-out hS1P1 cAMP pEC50, for CC(C)n1nnc2cc(-c3noc(C45CC6CC(CC(C6)C4)C5)n3)ccc21
Reply text: <6.5

Inquiry: Data request, read-out hS1P1 cAMP pEC50, for Cc1ccccc1-c1noc(-c2ccc3c(c2)nnn3C2CCCC2)n1
Reply text: >6.5

Inquiry: Data request, read-out hS1P1 cAMP pEC50, for CC(C)n1nnc2cc(-c3nc(-c4ccccc4OC(F)(F)F)no3)ccc21
Reply text: >6.5

====

molecular target: UniProt P21453; assay: Inhibition of cAMP production (HTRF cAMP HiRange), S1P1 CHO-K1 cells; type: cell-based; conditions: inhibition of cAMP production, S1P1 CHO-K1 cells
Quantity Measured: hS1P1 cAMP pEC50

molecule="COc1ccc(-c2nc(-c3ccc4c(c3)nnn4C(C)C)no2)c(C)c1 [Compound 90]" quantity_measured="hS1P1 cAMP pEC50" reported_result=<6.5
molecule="CCC1(CC)CC(=O)c2cc(-c3nc(-c4ccc(S(=O)(=O)N(C)C)cc4)no3)ccc2O1 [Compound 30]" quantity_measured="hS1P1 cAMP pEC50" reported_result=<6.5
molecule="CC(C)n1nnc2cc(-c3noc(-c4ccc(C5CCCCC5)cc4)n3)ccc21 [Compound 290]" quantity_measured="hS1P1 cAMP pEC50" reported_result=<6.5
molecule="C=CCNc1ccc(-c2nc(-c3ccc(NS(C)(=O)=O)cc3)no2)cc1C#N [Compound 149]" quantity_measured="hS1P1 cAMP pEC50" reported_result=>6.5
molecule="CCC1(CC)C/C(=N/O)c2cc(-c3nc(-c4cccnc4)no3)ccc2O1 [Compound 430]" quantity_measured="hS1P1 cAMP pEC50" reported_result=<6.5

Next:
Inquiry: Data request, read-out hS1P1 cAMP pEC50, for N#Cc1cc(-c2nnc(-c3ccc4[nH]cnc4c3)o2)ccc1NCC1CC1 [Compound 357]
Reply text: >6.5
